Test system: EGFR (human), P00533 [T790M/L858R]
Test method notes: KINOMEscan competition binding
Protocol conditions: compound 10.0 µM
Give measured kinase still bound, per cent of control for each item. Keep answers brief.
Report only the number, with the unit % understood.

Briefly, kinase still bound, per cent of control measured for CCN1CCN(Cc2ccc(NC(=O)c3ccc(C)c(/C=C/c4cnc5[nH]ccc5c4OC)c3)cc2C(F)(F)F)CC1 : 77

Briefly, kinase still bound, per cent of control measured for COc1cc(C(=O)NC2CCN(C)CC2)ccc1Nc1ncc2c(n1)N(C1CCCC1)CCC(=O)N2C(C)C : 100

Briefly, kinase still bound, per cent of control measured for CC(=O)c1c(C)c2cnc(Nc3ccc(N4CCNCC4)cn3)nc2n(C2CCCC2)c1=O : 60

Briefly, kinase still bound, per cent of control measured for O=C1NC(=O)/C(=C/c2ccc3nccc(-c4ccncc4)c3c2)S1 : 82

Briefly, kinase still bound, per cent of control measured for O=c1[nH]c2ccccc2n1C1CCN(Cc2ccc(-c3nc4cc5[nH]cnc5cc4nc3-c3ccccc3)cc2)CC1 : 100

---

Subject of test: KIT (human) (UniProt P10721)
Sequence (P10721 whole entry, looked up): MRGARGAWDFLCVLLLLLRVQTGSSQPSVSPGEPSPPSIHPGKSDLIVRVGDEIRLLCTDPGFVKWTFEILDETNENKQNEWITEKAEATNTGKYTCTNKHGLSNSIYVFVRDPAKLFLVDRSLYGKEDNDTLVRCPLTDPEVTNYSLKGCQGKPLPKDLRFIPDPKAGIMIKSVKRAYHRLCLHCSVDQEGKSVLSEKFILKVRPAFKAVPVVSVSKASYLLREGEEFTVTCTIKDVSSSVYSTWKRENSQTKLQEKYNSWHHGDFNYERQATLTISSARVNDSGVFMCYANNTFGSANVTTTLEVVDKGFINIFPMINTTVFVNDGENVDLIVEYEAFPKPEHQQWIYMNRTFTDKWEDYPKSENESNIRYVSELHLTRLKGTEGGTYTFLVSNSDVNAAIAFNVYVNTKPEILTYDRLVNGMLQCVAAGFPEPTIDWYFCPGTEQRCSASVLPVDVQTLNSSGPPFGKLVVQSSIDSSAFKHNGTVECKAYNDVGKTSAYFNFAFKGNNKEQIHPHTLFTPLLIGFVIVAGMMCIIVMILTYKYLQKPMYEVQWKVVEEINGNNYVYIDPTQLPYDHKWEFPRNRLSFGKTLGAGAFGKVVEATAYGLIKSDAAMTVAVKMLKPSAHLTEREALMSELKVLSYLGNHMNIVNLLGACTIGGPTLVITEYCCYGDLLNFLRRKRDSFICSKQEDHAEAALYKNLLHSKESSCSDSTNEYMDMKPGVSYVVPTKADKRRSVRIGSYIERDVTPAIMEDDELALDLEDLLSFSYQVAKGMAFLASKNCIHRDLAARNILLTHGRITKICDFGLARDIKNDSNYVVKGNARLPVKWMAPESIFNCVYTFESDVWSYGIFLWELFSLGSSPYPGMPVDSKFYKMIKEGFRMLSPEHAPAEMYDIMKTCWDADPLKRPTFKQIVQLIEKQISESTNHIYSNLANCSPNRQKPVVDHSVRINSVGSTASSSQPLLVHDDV
Test method notes: KINOMEscan competition binding
Protocol conditions: compound 10.0 µM
Binarize kinase still bound, per cent of control at 0.5%; below is 1, at or above is -1.

Criterion: kinase still bound, per cent of control strictly below 0.5%. Is it met by COc1cc2ncnc(-n3nc(-c4ccccn4)nc3N)c2cc1OC ?
-1

Criterion: kinase still bound, per cent of control strictly below 0.5%. Is it met by O=C(Nc1cccc(Nc2ncc(Br)c(NCCc3cnc[nH]3)n2)c1)N1CCCC1 ?
1

Criterion: kinase still bound, per cent of control strictly below 0.5%. Is it met by CNC(=O)c1cc(Oc2ccc(NC(=O)Nc3ccc(Cl)c(C(F)(F)F)c3)cc2)ccn1 ?
1

Criterion: kinase still bound, per cent of control strictly below 0.5%. Is it met by CCN(CC)CCCCNc1ncc2c(n1)N(C)C(=O)N(c1c(Cl)c(OC)cc(OC)c1Cl)C2 ?
-1

Criterion: kinase still bound, per cent of control strictly below 0.5%. Is it met by CNC(=O)c1ccc(Nc2cc(Nc3ccccc3S(=O)(=O)C(C)C)c3cc[nH]c3n2)nc1 ?
-1

Criterion: kinase still bound, per cent of control strictly below 0.5%. Is it met by CS(=O)(=O)N1CCN(Cc2cc3nc(-c4cccc5[nH]ncc45)nc(N4CCOCC4)c3s2)CC1 ?
-1

Criterion: kinase still bound, per cent of control strictly below 0.5%. Is it met by N#CCNC(=O)c1ccc(-c2ccnc(Nc3ccc(N4CCOCC4)cc3)n2)cc1 ?
-1

Criterion: kinase still bound, per cent of control strictly below 0.5%. Is it met by COc1ccc(N(C(=O)Oc2c(C)cccc2C)c2ccnc(Nc3ccc(N4CCN(C)CC4)cc3)n2)c(OC)c1 ?
1

Criterion: kinase still bound, per cent of control strictly below 0.5%. Is it met by COc1cc(C(=O)N2CCC(N3CCN(C)CC3)CC2)ccc1Nc1ncc2c(n1)N(C)c1ccccc1C(=O)N2C ?
-1

Criterion: kinase still bound, per cent of control strictly below 0.5%. Is it met by C=CC(=O)Nc1ccc(CN(C(=O)Nc2c(Cl)c(OC)cc(OC)c2Cl)c2cc(Nc3ccc(N4CCN(C)CC4)cc3)ncn2)cc1 ?
1

---

Subject of test: UniProtKB O75747
Sequence (O75747 whole entry, looked up): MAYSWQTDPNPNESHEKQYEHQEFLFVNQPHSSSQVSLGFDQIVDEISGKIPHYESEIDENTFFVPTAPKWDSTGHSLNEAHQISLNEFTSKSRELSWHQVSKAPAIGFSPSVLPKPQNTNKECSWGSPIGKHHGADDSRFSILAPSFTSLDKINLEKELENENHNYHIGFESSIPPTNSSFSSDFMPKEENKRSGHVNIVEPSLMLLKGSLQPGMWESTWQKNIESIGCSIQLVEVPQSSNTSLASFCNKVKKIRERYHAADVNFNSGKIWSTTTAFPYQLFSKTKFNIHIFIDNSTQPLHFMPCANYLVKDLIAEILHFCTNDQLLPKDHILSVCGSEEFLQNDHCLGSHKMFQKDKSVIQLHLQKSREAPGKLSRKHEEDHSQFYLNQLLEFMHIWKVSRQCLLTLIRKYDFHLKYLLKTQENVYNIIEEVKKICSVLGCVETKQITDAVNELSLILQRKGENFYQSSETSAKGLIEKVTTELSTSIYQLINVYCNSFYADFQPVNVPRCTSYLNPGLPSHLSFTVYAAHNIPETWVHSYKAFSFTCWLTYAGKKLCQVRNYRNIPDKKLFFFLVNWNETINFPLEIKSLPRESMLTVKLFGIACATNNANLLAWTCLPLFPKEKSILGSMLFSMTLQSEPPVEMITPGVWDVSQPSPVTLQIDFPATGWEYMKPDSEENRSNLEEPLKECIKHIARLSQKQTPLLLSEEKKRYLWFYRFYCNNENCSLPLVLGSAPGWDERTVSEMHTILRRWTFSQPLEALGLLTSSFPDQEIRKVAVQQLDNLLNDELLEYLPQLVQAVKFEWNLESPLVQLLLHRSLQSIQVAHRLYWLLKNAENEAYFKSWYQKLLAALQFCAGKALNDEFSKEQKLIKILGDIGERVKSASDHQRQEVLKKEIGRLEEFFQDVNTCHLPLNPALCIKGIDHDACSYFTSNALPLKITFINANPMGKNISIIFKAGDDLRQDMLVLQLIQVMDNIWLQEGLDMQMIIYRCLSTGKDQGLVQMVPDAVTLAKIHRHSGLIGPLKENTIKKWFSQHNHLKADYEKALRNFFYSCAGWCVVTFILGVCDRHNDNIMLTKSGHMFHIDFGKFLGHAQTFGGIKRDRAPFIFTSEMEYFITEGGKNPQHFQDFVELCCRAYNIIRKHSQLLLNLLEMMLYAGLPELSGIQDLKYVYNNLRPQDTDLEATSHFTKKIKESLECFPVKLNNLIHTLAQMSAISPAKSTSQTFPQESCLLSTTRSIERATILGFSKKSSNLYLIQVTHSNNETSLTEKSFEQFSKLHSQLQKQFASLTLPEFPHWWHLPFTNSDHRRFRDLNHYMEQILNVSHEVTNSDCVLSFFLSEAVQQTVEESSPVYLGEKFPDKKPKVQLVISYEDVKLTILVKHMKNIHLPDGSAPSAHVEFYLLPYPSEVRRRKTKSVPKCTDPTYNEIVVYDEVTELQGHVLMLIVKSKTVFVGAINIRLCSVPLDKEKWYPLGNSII
Test method notes: KINOMEscan competition binding
Protocol conditions: compound 10.0 µM
Binarize kinase still bound, per cent of control at 40%; below is true, at or above is false.

Criterion: kinase still bound, per cent of control strictly below 40%. Is it met by CCN(CC)CCCCNc1ncc2c(n1)N(C)C(=O)N(c1c(Cl)c(OC)cc(OC)c1Cl)C2 ?
false

Criterion: kinase still bound, per cent of control strictly below 40%. Is it met by C=CC(=O)Nc1cc(-n2c(=O)ccc3cnc4ccc(-c5cn[nH]c5)cc4c32)ccc1C ?
true

Criterion: kinase still bound, per cent of control strictly below 40%. Is it met by N#CCNC(=O)c1ccc(-c2ccnc(Nc3ccc(N4CCOCC4)cc3)n2)cc1 ?
false

Criterion: kinase still bound, per cent of control strictly below 40%. Is it met by COc1ccc(N(C(=O)Oc2c(C)cccc2C)c2ccnc(Nc3ccc(N4CCN(C)CC4)cc3)n2)c(OC)c1 ?
false

Criterion: kinase still bound, per cent of control strictly below 40%. Is it met by O=c1cc(N2CCOCC2)oc2c(-c3cccc4c3sc3ccccc34)cccc12 ?
true

Criterion: kinase still bound, per cent of control strictly below 40%. Is it met by O=C1NC(=O)/C(=C/c2ccc3nccc(-c4ccncc4)c3c2)S1 ?
true

Criterion: kinase still bound, per cent of control strictly below 40%. Is it met by CN(C)C/C=C/C(=O)Nc1ccc(C(=O)Nc2cccc(Nc3nccc(-c4cccnc4)n3)c2)cc1 ?
false

Criterion: kinase still bound, per cent of control strictly below 40%. Is it met by COc1cc(N2CCN(C)CC2)ccc1Nc1ncc2c(n1)N(C)c1ccccc1C(=O)N2C ?
false

Criterion: kinase still bound, per cent of control strictly below 40%. Is it met by CNC(=O)c1cc(Oc2ccc(NC(=O)Nc3ccc(Cl)c(C(F)(F)F)c3)cc2)ccn1 ?
false

Criterion: kinase still bound, per cent of control strictly below 40%. Is it met by COCC(=O)NC/C=C/c1ccc2ncnc(Nc3ccc(Oc4ccc(C)nc4)c(C)c3)c2c1 ?
true

Criterion: kinase still bound, per cent of control strictly below 40%. Is it met by COc1cc2ncnc(-n3nc(-c4ccccn4)nc3N)c2cc1OC ?
true

Criterion: kinase still bound, per cent of control strictly below 40%. Is it met by COc1cc(C(=O)N2CCC(N3CCN(C)CC3)CC2)ccc1Nc1ncc2c(n1)N(C)c1ccccc1C(=O)N2C ?
false

Criterion: kinase still bound, per cent of control strictly below 40%. Is it met by O=C(Nc1cccc(Nc2ncc(Br)c(NCCc3cnc[nH]3)n2)c1)N1CCCC1 ?
true

Criterion: kinase still bound, per cent of control strictly below 40%. Is it met by COc1cc2ncn(-c3cc(OCc4ccccc4C(F)(F)F)c(C(N)=O)s3)c2cc1OC ?
false

Criterion: kinase still bound, per cent of control strictly below 40%. Is it met by NC(=O)Nc1cc(-c2cccc(F)c2)sc1C(=O)N[C@@H]1CCCNC1 ?
false

Criterion: kinase still bound, per cent of control strictly below 40%. Is it met by C[C@@H](Oc1cc(-c2cnn(C3CCNCC3)c2)cnc1N)c1c(Cl)ccc(F)c1Cl ?
true

---

Subject of test: CHEK2 (human) (UniProt O96017)
Sequence (O96017 whole entry, looked up): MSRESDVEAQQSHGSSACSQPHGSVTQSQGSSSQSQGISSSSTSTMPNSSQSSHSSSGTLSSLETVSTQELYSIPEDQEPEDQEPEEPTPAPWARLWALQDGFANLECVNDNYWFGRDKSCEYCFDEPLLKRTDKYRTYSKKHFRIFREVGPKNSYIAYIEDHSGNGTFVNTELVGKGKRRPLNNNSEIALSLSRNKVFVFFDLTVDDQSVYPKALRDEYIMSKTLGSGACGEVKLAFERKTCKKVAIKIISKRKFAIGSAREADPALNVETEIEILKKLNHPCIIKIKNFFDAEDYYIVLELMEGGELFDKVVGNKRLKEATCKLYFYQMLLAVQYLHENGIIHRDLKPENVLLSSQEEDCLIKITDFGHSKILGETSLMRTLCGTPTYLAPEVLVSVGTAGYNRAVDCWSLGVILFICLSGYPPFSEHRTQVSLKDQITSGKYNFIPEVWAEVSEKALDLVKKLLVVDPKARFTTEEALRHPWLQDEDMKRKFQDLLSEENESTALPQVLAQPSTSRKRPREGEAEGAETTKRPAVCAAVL
Test method notes: KINOMEscan competition binding
Protocol conditions: compound 10.0 µM
Property name: kinase still bound, per cent of control (%)
Report only the number, with the unit % understood.

Briefly, kinase still bound, per cent of control measured for COc1cc2ncnc(-n3nc(-c4ccccn4)nc3N)c2cc1OC : 78

Briefly, kinase still bound, per cent of control measured for C=CC(=O)Nc1cc(-n2c(=O)ccc3cnc4ccc(-c5cn[nH]c5)cc4c32)ccc1C : 87

Briefly, kinase still bound, per cent of control measured for CCN1CCN(C(=O)Cc2ccc(Nc3ncc(F)c(Nc4ccc(C(=O)Nc5ccccc5Cl)cc4)n3)cc2)CC1 : 70

Briefly, kinase still bound, per cent of control measured for COc1cc(N2CCN(C)CC2)ccc1Nc1ncc2c(n1)N(C)c1ccccc1C(=O)N2C : 30

Briefly, kinase still bound, per cent of control measured for CS(=O)(=O)N1CCN(Cc2cc3nc(-c4cccc5[nH]ncc45)nc(N4CCOCC4)c3s2)CC1 : 100

Briefly, kinase still bound, per cent of control measured for NC(=O)Nc1cc(-c2cccc(F)c2)sc1C(=O)N[C@@H]1CCCNC1 : 3.8

Briefly, kinase still bound, per cent of control measured for CN(C)C/C=C/C(=O)Nc1ccc(C(=O)Nc2cccc(Nc3nccc(-c4cccnc4)n3)c2)cc1 : 86

Briefly, kinase still bound, per cent of control measured for O=c1cc(N2CCOCC2)oc2c(-c3cccc4c3sc3ccccc34)cccc12 : 100

Briefly, kinase still bound, per cent of control measured for COc1cc(C(=O)N2CCC(N3CCN(C)CC3)CC2)ccc1Nc1ncc2c(n1)N(C)c1ccccc1C(=O)N2C : 66

Briefly, kinase still bound, per cent of control measured for O=C(Nc1cccc(Nc2ncc(Br)c(NCCc3cnc[nH]3)n2)c1)N1CCCC1 : 24

Briefly, kinase still bound, per cent of control measured for CNC(=O)c1ccc(Nc2cc(Nc3ccccc3S(=O)(=O)C(C)C)c3cc[nH]c3n2)nc1 : 100

Briefly, kinase still bound, per cent of control measured for COc1cc2ncn(-c3cc(OCc4ccccc4C(F)(F)F)c(C(N)=O)s3)c2cc1OC : 100

Briefly, kinase still bound, per cent of control measured for COc1ccc(N(C(=O)Oc2c(C)cccc2C)c2ccnc(Nc3ccc(N4CCN(C)CC4)cc3)n2)c(OC)c1 : 78

Briefly, kinase still bound, per cent of control measured for CNC(=O)c1cc(Oc2ccc(NC(=O)Nc3ccc(Cl)c(C(F)(F)F)c3)cc2)ccn1 : 100

Briefly, kinase still bound, per cent of control measured for N#CCNC(=O)c1ccc(-c2ccnc(Nc3ccc(N4CCOCC4)cc3)n2)cc1 : 100

Briefly, kinase still bound, per cent of control measured for C[C@@H](Oc1cc(-c2cnn(C3CCNCC3)c2)cnc1N)c1c(Cl)ccc(F)c1Cl : 100

Briefly, kinase still bound, per cent of control measured for CCN(CC)CCCCNc1ncc2c(n1)N(C)C(=O)N(c1c(Cl)c(OC)cc(OC)c1Cl)C2 : 100

Briefly, kinase still bound, per cent of control measured for C=CC(=O)Nc1ccc(CN(C(=O)Nc2c(Cl)c(OC)cc(OC)c2Cl)c2cc(Nc3ccc(N4CCN(C)CC4)cc3)ncn2)cc1 : 100

Briefly, kinase still bound, per cent of control measured for Cc1n[nH]c2ccc(-c3cncc(OC[C@@H](N)Cc4c[nH]c5ccccc45)c3)cc12 : 100

Briefly, kinase still bound, per cent of control measured for COCC(=O)NC/C=C/c1ccc2ncnc(Nc3ccc(Oc4ccc(C)nc4)c(C)c3)c2c1 : 55

Briefly, kinase still bound, per cent of control measured for O=C1NC(=O)/C(=C/c2ccc3nccc(-c4ccncc4)c3c2)S1 : 57
